All figures here come from ChEMBL document CHEMBL4513216.

Quick list: cytotoxicity at 10 µM per entry.
Experiment: Toxicity liver stage against HepG2, at 10uM
Type: cell-based
Parameters: test concentration 10 uM, cell line HepG2-A16-CD81EGFP
Details: human, HepG2-A16-CD81EGFP cells; read-out: INHIBITION
Respond with the bare value in %.

Example entries and their recorded answers appear below.
Cc1nc(C)n(C2CCCN(C(=O)c3ccc(CN(C)C)cc3)C2)n1 (configuration not stated) : -1.6
Cc1cccc(C)c1NCc1noc(C2CC2)n1 : -5.06

q: Given Cc1nccn1-c1ncccc1CNC(=O)c1ccc(O)nc1 , state its recorded cytotoxicity at 10 µM.
a: -7.55

q: Given COCCn1c(=O)n(C)c(=O)c2ccc(C3CCC(CN)CC3)nc21 (configuration not stated) , state its recorded cytotoxicity at 10 µM.
a: -0.2

----------
Experiment: Toxicity liver stage against HepG2, at 10uM
Type: cell-based
Set-up: test concentration 10 uM, cell line HepG2-A16-CD81EGFP
Settings: human, HepG2-A16-CD81EGFP cells; read-out: INHIBITION
parameter: cytotoxicity at 10 µM (%)
Respond with the bare value in %.

COc1ccc(C2CCCN2c2cnccn2)c(OC)c1 (centres undefined) : 3.72
CC(C)N1CCCC(Cc2nccnc2Cl)CC1 (centres undefined) : -3.97
COc1ccc(CNC(=O)CNc2cc3c(cc2Cl)OCCCO3)cc1 : 3.25
Cc1nn(-c2ncccn2)c2c1C(c1cnn(C)c1C)SCC(=O)N2 (centres undefined) : -46.4
O=C1COc2cc(S(=O)(=O)NCCC3=CCCCC3)c(Br)cc2N1 : 15.7
O=C1NCC2(CCN(C(=O)c3ccc4c(c3)CCCO4)CC2)O1 : -5.8
Cc1ccccc1N1CCN(CCS(=O)(=O)c2ccc(Br)cc2)CC1 : 18.7
CCNc1nc(N(C)C)nc(-n2cnc(SC)n2)n1 : 2.22

q: Given Cc1ccc(N2CCCC(NCc3cccc4c3OCO4)C2)nn1 (centres undefined) , state its recorded cytotoxicity at 10 µM.
a: -16.4

q: Given CCN1CCN(C(=O)c2ccc3c(c2)OCC(=O)N3)[C@H]2CS(=O)(=O)C[C@H]21 , state its recorded cytotoxicity at 10 µM.
a: -49.6

q: Given Cc1cc(N(C)Cc2ccsc2)n2nc(C)c(C)c2n1 , state its recorded cytotoxicity at 10 µM.
a: 1.7

q: Given CC(=O)N1CCC2(C1)c1ccccc1S(=O)(=O)N2CCC(C)C (centres undefined) , state its recorded cytotoxicity at 10 µM.
a: -9.11

----------
Experiment: Toxicity liver stage against HepG2, at 10uM
Assay type: cell-based
Parameters: test concentration 10 uM, cell line HepG2-A16-CD81EGFP
Conditions: human, HepG2-A16-CD81EGFP cells; read-out: INHIBITION
Quick list: cytotoxicity at 10 µM per entry.
Respond with the bare value in %.

Example entries and their recorded answers appear below.
CNC(=O)[C@@H]1CC[C@@H]2[C@@H](CCN2C(=O)N(C)C)O1 : 13.2
Cc1cccc(-c2nc(N)nc3c2CN(C(=O)c2cc(C)n[nH]2)C3C)c1 (configuration not stated) : 4.58
Cc1nc(C)n(CC2CCCN(CCOc3ccccc3C#N)C2)n1 (configuration not stated) : 4.61
Cn1cc(C[C@H]2[C@H](O)CCN2Cc2ccncc2)cn1 : -78.5
Cc1c[nH]c(C2CN(Cc3ccccc3C(=O)O)CCO2)n1 (configuration not stated) : -0.822

q: Given CCN(CC)S(=O)(=O)c1ccc(CNc2cc(C)nc(C)n2)cc1 , state its recorded cytotoxicity at 10 µM.
a: -5.83

q: Given CCOCC(=O)N1CCCn2c(nnc2Cn2cccc2)C1 , state its recorded cytotoxicity at 10 µM.
a: -130

q: Given CC(C)n1cc(S(=O)(=O)N2CCCC(N3CCCCC3)C2)cn1 (configuration not stated) , state its recorded cytotoxicity at 10 µM.
a: 2.78

q: Given N#CCCCOc1cccnc1NC(=O)CCC1CCCC1 , state its recorded cytotoxicity at 10 µM.
a: -2.08

q: Given CC(Nc1cccc(CN2CCOC2=O)c1)C(=O)NC(N)=O (configuration not stated) , state its recorded cytotoxicity at 10 µM.
a: -7.44

q: Given Cc1cc(NCCN)nc(-c2ccccc2O)n1 , state its recorded cytotoxicity at 10 µM.
a: 7.61

q: Given Clc1ccccc1Cn1cc(CNC2CCc3ncnn3C2)cn1 (configuration not stated) , state its recorded cytotoxicity at 10 µM.
a: 1.91
